Would you mind telling me the reported Percent Effect of each entry?
Measured on: Ubiquitin-activating enzyme e1, putative (Leishmania donovani (strain BPK282A1)) (UniProt E9BSI1)
Sequence (whole entry): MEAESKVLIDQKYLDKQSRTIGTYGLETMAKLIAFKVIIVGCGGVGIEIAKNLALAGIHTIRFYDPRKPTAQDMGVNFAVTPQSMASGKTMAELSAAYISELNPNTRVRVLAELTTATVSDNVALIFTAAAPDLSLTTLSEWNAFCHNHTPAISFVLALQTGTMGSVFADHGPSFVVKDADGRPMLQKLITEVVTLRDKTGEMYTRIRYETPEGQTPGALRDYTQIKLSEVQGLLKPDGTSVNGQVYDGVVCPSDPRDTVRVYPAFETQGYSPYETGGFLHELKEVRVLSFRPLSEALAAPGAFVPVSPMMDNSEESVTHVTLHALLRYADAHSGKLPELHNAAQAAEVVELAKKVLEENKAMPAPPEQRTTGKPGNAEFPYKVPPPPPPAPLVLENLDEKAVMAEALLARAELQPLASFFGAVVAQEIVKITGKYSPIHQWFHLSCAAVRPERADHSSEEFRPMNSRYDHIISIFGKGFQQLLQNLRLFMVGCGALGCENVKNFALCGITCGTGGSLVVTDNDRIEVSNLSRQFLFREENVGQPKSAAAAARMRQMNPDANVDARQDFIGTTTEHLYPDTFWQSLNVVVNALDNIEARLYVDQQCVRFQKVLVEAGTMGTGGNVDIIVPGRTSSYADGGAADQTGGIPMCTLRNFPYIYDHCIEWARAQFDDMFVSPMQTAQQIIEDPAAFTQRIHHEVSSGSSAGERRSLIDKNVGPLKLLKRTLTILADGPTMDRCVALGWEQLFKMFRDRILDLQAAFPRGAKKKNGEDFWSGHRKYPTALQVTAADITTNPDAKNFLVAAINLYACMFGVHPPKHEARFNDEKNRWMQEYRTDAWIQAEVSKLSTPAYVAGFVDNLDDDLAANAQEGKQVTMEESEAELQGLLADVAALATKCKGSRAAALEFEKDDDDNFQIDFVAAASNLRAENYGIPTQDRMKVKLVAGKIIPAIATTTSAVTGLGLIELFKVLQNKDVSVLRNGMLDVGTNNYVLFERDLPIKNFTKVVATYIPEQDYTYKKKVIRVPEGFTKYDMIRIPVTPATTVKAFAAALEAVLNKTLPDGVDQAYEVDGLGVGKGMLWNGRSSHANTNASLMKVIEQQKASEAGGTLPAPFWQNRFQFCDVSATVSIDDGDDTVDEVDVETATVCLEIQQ
Procedure summary: Leishmania donovani Ubiquitin Activating Enzyme (LdE1)
Assay type: functional
Design: scale not given: direction of the effect not stated beside the values
Condition set: 30 µM
Entries with a potency or affinity are not part of this list.
Output spec: scalar in %, unitless text.

Q: Kindly indicate its recorded Percent Effect. Item: `Cc1nc(CN2CCCN(CCOc3cccc(C#N)c3)CC2)no1`
Result: 13.2

Q: For `CCSc1ccc(C(=O)Nc2c(C)nn(C(C)C)c2C)cn1` , write its Percent Effect.
Result: -2.74

Q: Consider the compound `O=C(CCCc1nnc(-c2ccccc2)o1)N1CCN(CCO)CC1` and give its recorded Percent Effect.
Result: 5.06

Q: Annotate the compound CC(NC(=O)NCCCn1ccnc1)c1ccc2c(c1)OCCCO2 (stereo not drawn) with its measured Percent Effect.
Result: 2.7

Q: Look up and report measured Percent Effect for this entry: `Cc1cccc(N2CCN(CCCNC(=O)c3nccn3C)CC2)c1`
Result: 5.41

Q: Look up Percent Effect of Cc1cnn(CCC(=O)N2CCCC(c3nc(C)no3)C2)c1 (stereo not drawn) and report it.
Result: 24.3

Q: Recall and state the measured Percent Effect for `CC(C)CS(=O)(=O)CC(=O)N(C)Cc1ccc(OC(F)F)cc1` .
Result: 2.7

Q: Retrieve Percent Effect measured for Cc1ccc(C2C3=C(COC3=O)Nc3[nH]nc(C)c32)cc1C (stereo not drawn) and print it.
Result: 9.33

* * *

Record form. Attribute: Percent Effect. Fill in for each entry.
Measured on: Chromo domain-containing protein 1 (Saccharomyces cerevisiae (strain ATCC 204508 / S288c) (Baker's yeast)) (UniProt P32657)
Sequence (P32657 whole entry, the tested form may be a part): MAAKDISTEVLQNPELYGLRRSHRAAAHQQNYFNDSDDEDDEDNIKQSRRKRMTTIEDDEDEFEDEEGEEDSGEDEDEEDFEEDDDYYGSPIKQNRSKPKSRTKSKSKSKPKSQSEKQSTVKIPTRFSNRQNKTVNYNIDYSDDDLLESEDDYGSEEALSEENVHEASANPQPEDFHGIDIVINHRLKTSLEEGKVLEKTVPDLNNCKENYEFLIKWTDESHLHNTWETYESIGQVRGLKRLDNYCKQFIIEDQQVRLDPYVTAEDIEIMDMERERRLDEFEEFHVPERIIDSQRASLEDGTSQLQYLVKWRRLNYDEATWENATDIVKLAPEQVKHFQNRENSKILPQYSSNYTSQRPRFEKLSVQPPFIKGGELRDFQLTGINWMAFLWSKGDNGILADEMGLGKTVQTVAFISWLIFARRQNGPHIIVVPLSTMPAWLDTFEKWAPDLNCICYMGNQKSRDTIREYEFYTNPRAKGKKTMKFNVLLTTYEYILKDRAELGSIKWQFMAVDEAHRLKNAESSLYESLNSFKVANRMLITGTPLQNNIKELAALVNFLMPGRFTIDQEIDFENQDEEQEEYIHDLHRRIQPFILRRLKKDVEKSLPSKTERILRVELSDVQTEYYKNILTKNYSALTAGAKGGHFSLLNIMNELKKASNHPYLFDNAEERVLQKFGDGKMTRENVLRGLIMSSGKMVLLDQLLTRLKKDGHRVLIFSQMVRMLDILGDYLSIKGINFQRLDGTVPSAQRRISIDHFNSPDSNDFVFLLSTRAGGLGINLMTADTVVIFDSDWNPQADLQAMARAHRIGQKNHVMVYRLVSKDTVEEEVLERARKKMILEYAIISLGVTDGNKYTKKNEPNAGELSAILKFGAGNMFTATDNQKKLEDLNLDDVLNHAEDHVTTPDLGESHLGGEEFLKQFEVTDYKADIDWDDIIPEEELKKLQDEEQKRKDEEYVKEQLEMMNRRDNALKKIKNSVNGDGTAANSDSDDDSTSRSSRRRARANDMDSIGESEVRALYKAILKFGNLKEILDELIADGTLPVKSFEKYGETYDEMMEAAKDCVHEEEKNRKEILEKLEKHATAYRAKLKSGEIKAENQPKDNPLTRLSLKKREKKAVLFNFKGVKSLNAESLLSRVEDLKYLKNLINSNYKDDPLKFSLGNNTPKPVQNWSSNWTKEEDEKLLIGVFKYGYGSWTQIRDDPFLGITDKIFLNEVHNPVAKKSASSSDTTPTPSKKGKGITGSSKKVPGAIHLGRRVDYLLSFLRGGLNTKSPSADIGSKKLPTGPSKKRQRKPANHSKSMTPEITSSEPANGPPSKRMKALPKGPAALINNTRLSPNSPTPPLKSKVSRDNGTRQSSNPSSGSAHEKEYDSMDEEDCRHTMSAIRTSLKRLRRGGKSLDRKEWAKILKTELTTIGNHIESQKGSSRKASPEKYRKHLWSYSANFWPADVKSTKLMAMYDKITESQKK
Procedure summary: ScCHD-1 Enzyme Inhibition Assay; note: in the data most compounds retested in dose-response had high values
Type: functional
Parameters: scale not given: direction of the effect not stated beside the values
Condition set: 30 µM
The response must be a number in % with no trailing unit.

Q: For the compound COC1CCCN(C(=O)Nc2nc(C)n(C)n2)C1 (centres undefined) , report Percent Effect.
Result: -6.37

Q: Give reported Percent Effect value for `Cc1nn(C)c2c(NCc3cccnc3)nc(C3CC3)nc12`
Result: 0.869

Q: For N#Cc1cccc(CS(=O)(=O)NCC(O)Cc2ccccc2)c1 (centres undefined) , write its Percent Effect.
Result: 1.24

Q: In one line, give reported Percent Effect of the entry `O=C(c1cc(F)ccc1F)C1CCN(C(=O)c2ccc(=O)[nH]n2)CC1` .
Result: -6.34

* * *

Measured on: Protein translocase subunit SecA (Escherichia coli (strain K12)) (UniProt P10408)
Sequence (P10408 whole entry): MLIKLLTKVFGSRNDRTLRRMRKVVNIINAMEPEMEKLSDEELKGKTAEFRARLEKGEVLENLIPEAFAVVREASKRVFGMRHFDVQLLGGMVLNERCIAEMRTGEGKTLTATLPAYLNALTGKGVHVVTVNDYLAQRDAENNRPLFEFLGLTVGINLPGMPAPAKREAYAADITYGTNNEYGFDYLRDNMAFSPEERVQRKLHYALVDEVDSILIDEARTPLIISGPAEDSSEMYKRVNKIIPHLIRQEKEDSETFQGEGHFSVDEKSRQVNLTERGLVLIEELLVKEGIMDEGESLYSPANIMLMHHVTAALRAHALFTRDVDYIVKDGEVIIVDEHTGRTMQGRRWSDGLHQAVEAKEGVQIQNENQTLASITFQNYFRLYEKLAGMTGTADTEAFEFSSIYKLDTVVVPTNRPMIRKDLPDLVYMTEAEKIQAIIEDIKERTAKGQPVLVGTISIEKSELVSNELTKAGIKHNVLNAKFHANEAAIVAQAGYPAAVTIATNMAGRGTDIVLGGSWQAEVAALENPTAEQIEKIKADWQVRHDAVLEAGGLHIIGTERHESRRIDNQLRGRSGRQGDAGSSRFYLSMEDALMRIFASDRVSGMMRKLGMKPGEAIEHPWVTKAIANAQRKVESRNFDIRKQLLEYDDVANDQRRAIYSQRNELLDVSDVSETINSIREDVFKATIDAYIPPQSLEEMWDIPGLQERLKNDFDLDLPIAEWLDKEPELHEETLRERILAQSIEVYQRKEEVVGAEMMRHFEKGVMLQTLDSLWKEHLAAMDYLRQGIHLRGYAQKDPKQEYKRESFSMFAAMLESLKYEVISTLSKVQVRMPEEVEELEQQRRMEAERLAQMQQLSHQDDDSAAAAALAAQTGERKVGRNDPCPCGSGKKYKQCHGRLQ
Procedure summary: Assay to Identify E. coli SecA ATPase Inhibitors
Format: functional
Design: scale not given: direction of the effect not stated beside the values
Condition set: 30 µM
Measured potencies and affinities stand elsewhere.
Please provide measured Percent Effect for the entries that follow.
Answer in %, number only, no unit symbol.

Q: Indicate the recorded Percent Effect value for this compound: Cc1nc(C2CCCN(C(=O)CCCn3ccnc3C)C2)no1 (centres undefined)
Result: -3.92

Q: Return the recorded Percent Effect value; entry: CCOc1ccccc1-c1noc(CN2CCCC(O)C2)n1 (centres undefined)
Result: -8.22

Q: Specify Percent Effect for `O=C1NCCN(CC2CC2)C12CCN(Cc1ccc3c(c1)OCO3)CC2` and stop.
Result: -1.54

Q: Complete the entry with Percent Effect for CN(Cc1ccccn1)C1COC2(CCN(Cc3nccs3)CC2)C1 (centres undefined)
Result: -4.64

Q: Using the record for `Cc1ccoc1C(=O)NC1CCN(Cc2cccc3c2OCCO3)CC1` , state its measured Percent Effect.
Result: -5.22

Q: Indicate the recorded Percent Effect value for this compound: CC(C)c1nnc(CN2CCCC2Cn2cncn2)o1 (centres undefined)
Result: -4.03

Q: Find the measured Percent Effect of CC(C)c1ncc(CN2CCCC(CO)C2)cn1 (centres undefined) and report it.
Result: -1.56

Q: Answer with the recorded Percent Effect of `Cc1cc(-c2cnc(NC3CCCC3)nc2-c2ccoc2C)on1` only.
Result: -2.76

Q: Quickly give me recorded Percent Effect for `O=C(CN1CC(n2cccn2)C1)NCCCc1ccccc1`
Result: 0.869

Q: Given the compound COc1ccc(OCC(=O)NC(C)c2ccccc2)c(C(=O)O)c1 (centres undefined) , write its reported Percent Effect.
Result: -7.92

Q: Identify the reported Percent Effect for the following entry. `CS(=O)(=O)NC[C@]12COC[C@H]1CN(C(=O)c1ccoc1)C2`
Result: -3.11

Q: Provide one value: measured Percent Effect of `Cc1cccc(CN2CCc3nnc(CN4CCCC4=O)n3CC2)n1`
Result: -3.64

Q: Input `CC(C)Nc1ccc2nc(C3CCN(C(C)C)CC3)nn2c1` , output reported Percent Effect.
Result: -0.345

Q: In one line, give reported Percent Effect of the entry CC(NC(=O)N1CCCN(Cc2cccs2)CC1)c1cccnc1 (centres undefined) .
Result: -0.761

Q: Output Percent Effect of CNCC(=O)N1CCC(c2ccnc(Nc3ccc(C)cn3)n2)C1 (centres undefined)
Result: -7.25

Q: # return recorded Percent Effect for input Cc1cccc(CN2CCC3(CCN(Cc4ccccn4)C3)C2=O)c1 (centres undefined)
Result: -10.9

Q: Please report the measured Percent Effect for O=C(O)C(c1ccc2c(c1)OCO2)N1CCC(C(=O)N2CCCC2)CC1 (centres undefined)
Result: -6.55

Q: Hello, please tell me recorded Percent Effect for this one: O=C(NCCNc1ncccn1)N1CCCC(C(F)(F)F)C1 (centres undefined)
Result: -2.28

Q: Indicate the recorded Percent Effect value for this compound: `COCCO[C@H]1CCN(C(=O)c2ccno2)[C@H]1Cc1cnn(C)c1`
Result: -1.65

Q: Identify Percent Effect associated with the compound CC(=O)N1CCN(C(=O)C(C)n2cncn2)CC1 (centres undefined)
Result: -3.75

Q: For `CC(C)CCCNC(=O)Nc1ccc(F)c(C(N)=O)c1` , write its Percent Effect.
Result: -0.324

Q: Query Percent Effect for CCOCC1CN(S(C)(=O)=O)Cc2cnn(CC3CCOCC3)c21 (centres undefined)
Result: -3.9

Q: Please supply the value of reported Percent Effect for the item `O=C(NCCOc1ccc2c(c1)CCC2)N1CCS(=O)(=O)CC1`
Result: -6.68

Q: State its Percent Effect for this compound: CCN(CC)S(=O)(=O)N1CCCC(c2cccc(C(=O)O)c2)C1 (centres undefined)
Result: -3.72

Q: Specify Percent Effect for Cc1cc(C2CCCN2Cc2ccn(C)c(=O)c2)no1 (centres undefined) and stop.
Result: -3.32

Q: Give the reported Percent Effect for this compound. COCC1CN(C(=O)COc2ccccc2)Cc2cn(C)nc21 (centres undefined)
Result: 1.54

Q: Name the recorded Percent Effect of the compound listed here: Cc1nc(NC2CCCC2)cc(C2CCN2C(=O)c2ccccc2)n1 (centres undefined)
Result: -6.88

Q: Return the recorded Percent Effect value; entry: `COCCN(C)C[C@@H]1CCC[C@@H]2CN(c3cc(OC)ncn3)C[C@@H]21`
Result: -6.04

Q: Return reported Percent Effect. Input compound: COc1ccc(C2=CCN(C(=O)C3CCCN(C(N)=O)C3)CC2)cc1 (centres undefined)
Result: -3.88

Q: Tell us which Percent Effect value is on record for `CN(Cc1ccsc1)C(=O)Nc1ccc(S(=O)(=O)N(C)C)cc1`
Result: -1.98

Q: Please supply the value of reported Percent Effect for the item CC(NC(=O)c1cccs1)C(=O)NCc1ccccc1CN1CCCC1 (centres undefined)
Result: -4.29

Q: Give reported Percent Effect value for O=C(NCC1CC1)C1CCC2(CCN(C(=O)c3ccccn3)CC2)O1 (centres undefined)
Result: -3.07

Q: Dear colleague, please send me the reported Percent Effect for COc1ccccc1CNC(=O)N1CCCC(c2nncn2C)C1 (centres undefined) when you can.
Result: -3.81

Q: Supply reported Percent Effect belonging to this compound: `Cc1[nH]/c(=N\C(=O)c2csc(NC3CC3)n2)sc1C`
Result: -5.11

Q: Give reported Percent Effect value for Cn1cc(N2CC3(COCCN(Cc4ccsc4)C3)OCC2=O)cn1 (centres undefined)
Result: -9.04

Q: Identify measured Percent Effect associated with `O=C1CO[C@@H]2CN(CC3CCOCC3)C[C@H]2N1CC1CC1`
Result: -3.37

Q: Return Percent Effect for the following compound: `CN1CCN(c2ncnc3c2c(C(=O)NC2CC2)c2ccccn23)CC1`
Result: -0.824

Q: State its Percent Effect for this compound: `COc1cc(C(=O)Nc2c(C)noc2C)ccc1C`
Result: -3.57

Q: Provide measured Percent Effect value, entry: Cc1nccnc1CN1CCC2(CCCN(C3CCOCC3)C2=O)C1 (centres undefined)
Result: -2.05
